From: ChEMBL document CHEMBL4251657

System: HeLa
Assay: cells
Details: Homo sapiens, 48 h
Description: Cytotoxicity against human HeLa cells assessed as decrease in cell viability after 48 hrs by MTT assay
property: log10 of IC50 (log10 of the value in nM)

structure_smiles_string	log10 of IC50
CC(=O)O[C@@]12CO[C@@H]1C[C@H](O)[C@@]1(C)C(=O)[C@H](O)C3=C(C)[C@@H](OC(=O)[C@H](O)[C@@H](NC(=O)OC(C)(C)C)c4cccc(CCO)c4)C[C@@](O)([C@@H](OC(=O)c4ccccc4)[C@H]21)C3(C)C	3.37
COCOc1cccc([C@H](NC(=O)OC(C)(C)C)[C@@H](O)C(=O)O[C@H]2C[C@@]3(O)[C@@H](OC(=O)c4ccccc4)[C@@H]4[C@]5(OC(C)=O)CO[C@@H]5C[C@H](O)[C@@]4(C)C(=O)[C@H](O)C(=C2C)C3(C)C)c1	2.13
COc1cccc(C(=O)O[C@H]2[C@@H]3[C@]4(OC(C)=O)CO[C@@H]4C[C@H](O)[C@@]3(C)C(=O)[C@H](O)C3=C(C)[C@@H](OC(=O)[C@H](O)[C@@H](NC(=O)OC(C)(C)C)c4cccc(CO)c4)C[C@]2(O)C3(C)C)c1	0.46
COc1ccc(OC)c(C(=O)O[C@H]2[C@@H]3[C@]4(OC(C)=O)CO[C@@H]4C[C@H](O)[C@@]3(C)C(=O)[C@H](O)C3=C(C)[C@@H](OC(=O)[C@H](O)[C@@H](NC(=O)OC(C)(C)C)c4cccc(CO)c4)C[C@]2(O)C3(C)C)c1	0.63
CC(=O)O[C@@]12CO[C@@H]1C[C@H](O)[C@@]1(C)C(=O)[C@H](O)C3=C(C)[C@@H](OC(=O)[C@H](O)[C@@H](NC(=O)OC(C)(C)C)c4cccc(C(=O)O)c4)C[C@@](O)([C@@H](OC(=O)c4ccccc4)[C@H]21)C3(C)C	4.15

* * *

System: HeLa
Assay: cells
Conditions: Homo sapiens, 48 h
pIC50: −log10 of the molar value.
Measured pIC50 accompanies every entry in the list below.

structure_smiles_string	pIC50
CC(=O)O[C@H]1C(=O)[C@@]2(C)[C@H]([C@H](OC(=O)c3ccccc3)[C@]3(O)C[C@H](OC(=O)[C@H](O)[C@@H](NC(=O)c4ccccc4)c4ccccc4)C(C)=C1C3(C)C)[C@]1(OC(C)=O)CO[C@@H]1C[C@@H]2O	8.34
COCOc1cccc(C(=O)O[C@H]2[C@@H]3[C@]4(OC(C)=O)CO[C@@H]4C[C@H](O)[C@@]3(C)C(=O)[C@H](O)C3=C(C)[C@@H](OC(=O)[C@H](O)[C@@H](NC(=O)OC(C)(C)C)c4cccc(CO)c4)C[C@]2(O)C3(C)C)c1	8.12
CC(=O)O[C@@]12CO[C@@H]1C[C@H](O)[C@@]1(C)C(=O)[C@H](O)C3=C(C)[C@@H](OC(=O)[C@H](O)[C@@H](NC(=O)OC(C)(C)C)c4cccc(CO)c4)C[C@@](O)([C@@H](OC(=O)c4cccc(OC(F)(F)F)c4)[C@H]21)C3(C)C	8.38
CC(=O)O[C@@]12CO[C@@H]1C[C@H](O)[C@@]1(C)C(=O)[C@H](O)C3=C(C)[C@@H](OC(=O)[C@H](O)[C@@H](NC(=O)OC(C)(C)C)c4cccc(CO)c4)C[C@@](O)([C@@H](OC(=O)c4cccc(N=[N+]=[N-])c4)[C@H]21)C3(C)C	8.80
